Tested on: RARb homodimer (NR concentration 270 nM)
TEST_SUMMARY: PBM binding z-score (relative to random genomic background probes); higher = stronger binding; sequences stand for … in GC…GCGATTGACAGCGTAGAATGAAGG
# if value of PBM binding z-score reaches 0.6, tag 1 (yes); if it stays below, tag 0 (no)

Here's what some known entries look like.
| SEQUENCE_DATA | GROUP |
| --- | --- |
| ATCGAAAGGTCGACAAGGTGAGTATACACCGTTT | 1 (yes) |
| ACAGACAGGTGAGTGAAGGTAACTCATCTGGACG | 0 (no) |
| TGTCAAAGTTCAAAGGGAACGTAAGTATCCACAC | 1 (yes) |
| TCGTGTAGGTTACCAATGGGGCATTCAGCTTTCT | 1 (yes) |
| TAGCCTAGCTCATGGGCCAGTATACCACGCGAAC | 0 (no) |

Challenge: Decide: PBM binding z-score of CCTGCTAGGGCATGGTCAGCTAATCTACAGTATG >= 0.6?
Response given: 0 (no)

Challenge: Could you tell me if the measured PBM binding z-score of ATCTCTAGGTAACCAAGTTCAGTGAGTGCCGAAC reaches 0.6 or more?
Response given: 1 (yes)

Challenge: Given the entry CGAACTAGGTGAAGGACAGTGAATCTCCGCACGC , answer whether its PBM binding z-score meets or surpasses 0.6.
Response given: 0 (no)

Challenge: Hi, just wondering whether TCTAGCAGGCCAGAGGCTCACTCAAGAGGTACGG shows PBM binding z-score of 0.6 or higher.
Response given: 0 (no)

Challenge: Does TCGGACAGGTGAAGGTAACTCAGGTACGCAGTCG have a reported PBM binding z-score of at least 0.6?
Response given: 1 (yes)

Challenge: Is reported PBM binding z-score greater than or equal to 0.6 here: ATCTCTAGGTAACCAAGTTCAGTGCATGCCGAAC
Response given: 1 (yes)

Challenge: Does PBM binding z-score meet or surpass 0.6 for TCGAGTAGGTGACCAATGGGGCATTCAGCTTTCT ?
Response given: 1 (yes)

Challenge: State whether the measured PBM binding z-score reaches 0.6, counting equality as reaching it, for CCTCGGAGGACAGCAGGTCAGAGCTGTCCGCTTT
Response given: 1 (yes)
